B1: library; numbered along this chain (parent)
chain: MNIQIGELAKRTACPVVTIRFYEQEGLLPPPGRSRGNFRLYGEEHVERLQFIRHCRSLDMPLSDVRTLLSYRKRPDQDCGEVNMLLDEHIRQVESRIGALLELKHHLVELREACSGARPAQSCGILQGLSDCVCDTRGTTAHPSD

- Variants of: B1
- ASSAY EXPLANATION: sfGFP reporter fluorescence (15 h) (µM FITC); higher = stronger transcriptional activation
- CONDITION PARAMETERS: library round: Round 1; ligand: 1 µM Pb
Give Satisfied when the value for sfGFP reporter fluorescence is at least 0.1. Give Not satisfied when it is less.

VARIANT SPEC | GROUP LABEL
I90L D131C | Not satisfied
M60L P61N D64K L107C G128M | Satisfied
R39F V46C | Not satisfied
P61S G128I D131C | Satisfied
V108L R111L | Not satisfied
L129I D131C | Not satisfied
G36F M60L P61N | Not satisfied
D135S P143W | Not satisfied
P61N D64K V108H | Satisfied
P61N E112V | Not satisfied
P61N D64K D131C | Satisfied
D131A D135P | Satisfied
N83S D135A | Not satisfied
L58F M60L P61N | Satisfied
E109A D131C | Not satisfied
I97S K104V | Satisfied
L107C D131A | Satisfied
E109L G128H P143L | Not satisfied
M60L D64K G128T D135A | Satisfied
N83I D131S | Not satisfied
H142C P143A | Not satisfied
K104R D135A | Not satisfied
N83T E109F | Not satisfied
M60L D64K K104V D131C | Satisfied
V16C K104V | Not satisfied
L107C G128I D131C | Satisfied
P61D D64K L107C | Satisfied
D64T N83T R111I | Satisfied
P61N D64K D135A | Satisfied
V108R P143M | Not satisfied
D64K N83T | Satisfied
D64A K104C | Satisfied
P61N P143L | Satisfied
R91A K104V | Satisfied
V82I E112I D131C | Not satisfied
L107I C114R | Not satisfied
N83T L85M | Not satisfied
D131A P143L | Not satisfied
M60L P61D D64K | Satisfied
N83T K104V | Satisfied
N83W P143A | Not satisfied
N83T P143R | Not satisfied
P61D D64M R111L | Satisfied
M60L D64K G128T D131C | Satisfied
R111I G128I | Satisfied

The reported numbers originate from the supplement of paper PMC12783771.
